Biological target: KIT V560G (Homo sapiens (Human), UniProt P10721, V560G)
Sequence (P10721 26-976 V560G): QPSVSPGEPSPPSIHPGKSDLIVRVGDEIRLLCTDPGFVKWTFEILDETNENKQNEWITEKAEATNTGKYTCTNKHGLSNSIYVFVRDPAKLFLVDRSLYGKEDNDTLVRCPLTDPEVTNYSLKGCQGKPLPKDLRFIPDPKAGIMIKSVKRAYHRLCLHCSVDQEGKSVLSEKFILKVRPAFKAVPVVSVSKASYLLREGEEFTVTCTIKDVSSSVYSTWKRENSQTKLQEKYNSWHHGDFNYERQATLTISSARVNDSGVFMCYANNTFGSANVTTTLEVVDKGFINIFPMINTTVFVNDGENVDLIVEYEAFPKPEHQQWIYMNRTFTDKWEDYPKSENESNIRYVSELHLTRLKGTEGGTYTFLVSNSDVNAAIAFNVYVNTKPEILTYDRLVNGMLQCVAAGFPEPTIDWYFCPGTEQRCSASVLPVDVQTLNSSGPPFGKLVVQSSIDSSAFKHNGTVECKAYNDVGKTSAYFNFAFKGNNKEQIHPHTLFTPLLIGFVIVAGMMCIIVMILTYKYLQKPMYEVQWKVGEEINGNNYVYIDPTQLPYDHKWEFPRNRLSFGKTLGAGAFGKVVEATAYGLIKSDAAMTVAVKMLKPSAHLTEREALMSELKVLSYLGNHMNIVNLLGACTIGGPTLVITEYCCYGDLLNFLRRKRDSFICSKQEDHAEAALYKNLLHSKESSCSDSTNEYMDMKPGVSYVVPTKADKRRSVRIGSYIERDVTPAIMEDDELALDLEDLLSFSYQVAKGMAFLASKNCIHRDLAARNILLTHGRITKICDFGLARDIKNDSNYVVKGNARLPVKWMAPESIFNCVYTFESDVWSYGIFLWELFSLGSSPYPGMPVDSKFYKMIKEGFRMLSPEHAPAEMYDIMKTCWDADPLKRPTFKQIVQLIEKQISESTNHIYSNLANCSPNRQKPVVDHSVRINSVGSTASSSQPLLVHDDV
Assay: Kinase profiling with recombinant enzyme, 33P-ATP filter-binding method
Conditions: c-KIT V560G, poly[Glu:Tyr] (4:1), ATP (Km) 20 uM; read-out: INH-KITV560G (exon 11) IC50
pIC50: −log10 of the molar value.
Measured Property: pIC50

Solved cases (3 shown):
1) Cn1cc(-c2cc3c(N4CCN(c5ncc([C@@](C)(N)c6ccc(F)cc6)cn5)CC4)c(Cl)cnn3c2)cn1 = 7.00 to 8.00
2) Cn1cc(-c2cc3c(N4CCN(c5ncc([C@@](C)(N)c6ccc(F)cc6)cn5)CC4)c(F)cnn3c2)cn1 = 7.00 to 8.00
3) Cn1cc(-c2cc3c(N4CCN(c5ncc([C@@](C)(N)c6ccc(F)cc6)cn5)CC4)c(C#N)cnn3c2)cn1 = 8.00 to 9.00

Value of measured pIC50 for the entry `Cn1cc(-c2cc3c(N4CCN(c5ncc([C@@](C)(N)c6ccc(F)cc6)cn5)CC4)ccnn3c2)cn1` : 8.00 to 9.00

---

Molecular target: KIT V559D/V654A (Homo sapiens (Human), UniProt P10721, V559D/V654A)
Sequence (P10721 26-976 V559D/V654A): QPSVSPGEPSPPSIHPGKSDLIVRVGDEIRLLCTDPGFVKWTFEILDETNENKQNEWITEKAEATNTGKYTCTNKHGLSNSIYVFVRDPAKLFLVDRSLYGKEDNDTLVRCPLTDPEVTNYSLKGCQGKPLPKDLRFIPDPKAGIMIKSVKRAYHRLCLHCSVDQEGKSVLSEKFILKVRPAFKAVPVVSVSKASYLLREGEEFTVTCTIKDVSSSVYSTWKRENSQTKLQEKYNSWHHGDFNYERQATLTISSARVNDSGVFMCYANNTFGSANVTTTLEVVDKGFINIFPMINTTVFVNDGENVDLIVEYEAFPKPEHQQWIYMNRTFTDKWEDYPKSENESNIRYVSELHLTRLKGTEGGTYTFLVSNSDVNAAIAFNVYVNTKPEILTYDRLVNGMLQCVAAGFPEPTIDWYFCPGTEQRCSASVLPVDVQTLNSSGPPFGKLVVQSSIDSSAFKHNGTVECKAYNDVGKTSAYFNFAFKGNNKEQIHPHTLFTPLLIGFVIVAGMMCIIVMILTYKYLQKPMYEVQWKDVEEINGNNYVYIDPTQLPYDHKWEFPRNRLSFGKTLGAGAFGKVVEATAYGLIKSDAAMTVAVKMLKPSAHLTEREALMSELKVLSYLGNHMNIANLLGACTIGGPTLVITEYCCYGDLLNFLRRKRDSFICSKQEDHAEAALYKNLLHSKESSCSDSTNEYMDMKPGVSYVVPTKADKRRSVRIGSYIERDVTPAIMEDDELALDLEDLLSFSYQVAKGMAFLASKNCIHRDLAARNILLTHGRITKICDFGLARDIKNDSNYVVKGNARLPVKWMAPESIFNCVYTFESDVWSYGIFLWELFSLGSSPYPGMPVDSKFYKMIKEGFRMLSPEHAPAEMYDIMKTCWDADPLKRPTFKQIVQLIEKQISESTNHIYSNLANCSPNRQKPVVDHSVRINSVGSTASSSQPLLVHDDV
Test: Kinase profiling with recombinant enzyme, 33P-ATP filter-binding method
Details: c-KIT V559D/V654A, poly[Glu:Tyr] (4:1), ATP (Km) 20 uM; read-out: INH-KITV559D/V654A (exon 13) IC50
Measured Property: IC50

Value of measured IC50 for the entry `Cn1cc(-c2cc3c(N4CCN(c5ncc([C@@](C)(N)c6ccc(F)cc6)cn5)CC4)c(C#N)cnn3c2)cn1` : 0.01 to 0.1 µM

Value of measured IC50 for the entry `Cn1cc(-c2cc3c(N4CCN(c5ncc([C@@](C)(N)c6ccc(F)cc6)cn5)CC4)c(F)cnn3c2)cn1` : 0.01 to 0.1 µM

Value of measured IC50 for the entry `Cn1cc(-c2cc3c(N4CCN(c5ncc([C@@](C)(N)c6ccc(F)cc6)cn5)CC4)c(Cl)cnn3c2)cn1` : > 0.1 µM

Value of measured IC50 for the entry `Cn1cc(-c2cc3c(N4CCN(c5ncc([C@@](C)(N)c6ccc(F)cc6)cn5)CC4)ccnn3c2)cn1` : 0.00101 to 0.01 µM
